molecular target: rhesus HPH2 (Macaca mulatta); experiment: biochemical
Sequence (I2CX88 1-426): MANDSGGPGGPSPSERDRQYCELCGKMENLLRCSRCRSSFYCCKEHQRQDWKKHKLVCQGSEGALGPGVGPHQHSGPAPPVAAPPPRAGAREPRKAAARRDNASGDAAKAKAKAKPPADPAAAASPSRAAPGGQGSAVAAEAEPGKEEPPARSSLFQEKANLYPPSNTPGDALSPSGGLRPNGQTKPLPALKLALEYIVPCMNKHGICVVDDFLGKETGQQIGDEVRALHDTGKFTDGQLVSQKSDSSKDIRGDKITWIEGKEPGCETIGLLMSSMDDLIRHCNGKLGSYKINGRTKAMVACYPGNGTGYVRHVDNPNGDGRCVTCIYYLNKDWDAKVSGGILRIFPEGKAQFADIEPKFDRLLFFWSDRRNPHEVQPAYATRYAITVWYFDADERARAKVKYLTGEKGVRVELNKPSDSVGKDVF
pIC50: −log10 of the molar value.
PROPERTY_MEASURED: pIC50

COMPOUND: NNc1nncc2ccccc12 [Hydralazine]
NUMERIC_VALUE: 3.49

Each recorded value in this set is attributed to patent US20100240069A1.
